These entries and their values trace back to the DeepSol protein solubility set.

Assay: soluble on expression in E. coli; label from the status in PepcDB or PDB records
endpointLabel: soluble on expression in E. coli

seqtext=MGSDKIHHHHHHSESIIEEAVRKGEVLKGEIVPIDTALFRYAYRMRVQGDKAVILDLHNADYYYHVFTYPDFQYQSSFGKRGEGPGESIYAANIRFAGQDTVWVLDDGKGRMYQYSGIAGGKTPKQEKDILLDKRLFRSLDFDLKDASTVVIPDYSGENRFSWASLSSGELLRKSEQIPVSDPELLRESAPAVAQGWNSFVSFSPDKKILVSVTQFGDRLDIYSMASQKHIGELGGDGEPQFKVSPEGYGLPAGRICYYDVQVTDQYIYTIYDGRKFKDIMKLADAYQQGGKILRISTHEGDVVKTYVLDRPIAGIYVDEAAGMLFGLDVNADEQIVKFPLELE val="not soluble"
seqtext=MGSDKIHHHHHHMDDRARALLKALIERYIADGQPVGSRTLSKVFDLSPATIRNVMADLEELGLIHSPHTSAGRVPTPRGYRMFVDSLLAVRAYQFEPAHIGELLPVSEPSRAVNAAAALLSNLTQFAGVVLTPKRTQIFRQIEFIRLSDKRVLLIIVTPEGDVQNRILSAQRDYTEAELLEAGNFFNVHFSGKSFDAVRRTLSTELAQLRDDISRLMQAAVEAGAEAADDGEAVVISGERKLLDVTDIASDMDRLRKMFSLFEKKTDLLQLLDVSSRAQGVQIYIGGDSQLVPMEEVSVITAPYGVDGKVIGTLGVIGPTRMAYERVIPIVDITARLLSNALSHNQ val="not soluble"
